molecular target: T1, human IL-1β (human, UniProt P01584 117-269); test: IC50 column of Table 63; receptor binding assay presumed
T1 construct: antigen of the ABT2 dAbs; also called hIL-1β; IL-1 beta
property_measured: IC50 (nM)
One number for each entry, in nM.

ABT2-65-117 (other, VH dAb) VH: EVQLLESGGGLVRPGGSLRLSCVASGFTFEDYQMGWVRQAPGKGLEWISSISAMGNRTYYADSVKGRFTISRDDSKNTLYLQMNSLRAEDTAVYYCAQNLVRLGRSRWMFDYWGQGTLVTVSS = 10
ABT2-42 (other) VL: DIQMTQSPSSLSASVGDRVTITCRASQYIEKWLTWYQQKPGKAPTLLIYRGSLLQSGVPSRFSGSGSGTDFTLTISSLQPEDFATYYCQQTEYWPFTFGQGTKVEIKR = 770
ABT2-65-168 (other, VH dAb) VH: EVQLLESGGGLVQPGGSLRLSCAASGFTFEDYQMGWVRQAPGKGLEWVSSISAMGNRTYYADSVKGRFTISRDDSKNTLYLQMNSLRAEDTAVYYCAQNLVRWKLESWMFDYWGQGTLVTVSS = 30
ABT2-65-78 (other, VH dAb) VH: EVQLLESGGGLVQPGGSLRLSCVASGFTFEDYQMGWVRQAPGKGLEWVSSISAMGNRTYYADSVKGRFTISRDDSKNTLYLQMNSLRAEDTAVYYCAQNLVRLGTSRWMFDYWGQGALVTVSS = 30
ABT2-65-85 (other, VH dAb) VH: EVQLMESGGGLVQPGGSLRLSCVASGFTFEDYQMGWVRQAPGKGLEWVSSISAMGNRTYYADSVKGRFAISRDDSKNTLYLQMNSLRAKDTAVYYCAQNLVRLGRSRWMFDYWGQGTLVTVSS = 7

Okay, here is my list. What is IC50 for each of these?
1. ABT2-65-124 (other, VH dAb) VH: EVQLLESGGGLVQPGGSLRLSCVASGFTFEDYQMGWVRQAPGKGLEWVSSISAVGNRTYYADSVKGRFTISRDDSKNTLYLQMNSLRAEDIAVYYCAQNLVRLGRSRWMFDYWGQGTLVTVSS
2. ABT2-65-16 (other, VH dAb) VH: EVQLLESGGGLVQPGGSLRLSCAASGFTFEDYQMGWVRQAPGKGLEWVSSISAMGNRTYYADSVKGRFTISRDDSKNTLYLQMNSLRAEDTAVYYCAENLVKWRSAEWMFDYWGQGTLVTVSS
3. ABT2-65-47 (other, VH dAb) VH: EVQLLESGGGLVQPGGSLRLSCAASGFTFEDYQMGWVRQAPGKGLEWVSSISAMGNRTYYADSVKGRFTISRDDSKNTLYLQMNSLRAEDTAVYYCAKWRKRTQSKLGYFDYWGQGTLVTVSS
4. ABT2-65-135 (other, VH dAb) VH: EVQLLESGGGLVQPGGSLRLSCAASGFTFEDYQMGWVRQAPGKGLEWVSSISAMGNRTYYADSVKGRFTISRDDSKNTLYLQMNSLRAEDTAVYYCAENLVRIKKMKWMFDYWGQGTLVTVSS
5. ABT2-65-171 (other, VH dAb) VH: EVQLLESGGGLVQPGGSLRLSCAASGFTFEDYQMGWVRQAPGKGLEWVSSISAMGNRTYYADSVKGRFTISRDDSKNTLYLQMNSLRAEDTAVYYCAQNLVRLNRSQWMFDYWGQGTLVTVSS
6. ABT2-65-148 (other, VH dAb) VH: EVQLLESGGGLVQPGGSLRLSCAASGFTFEDYQMGWVRQAPGKGLEWVSSISAMGNRTYYADSVKGRFTISRDDSKNTLYLQMNSLRAEDTAVYYCAQNLVRLGSKRWMFDYWGQGTLVTVSS

1: 3.8; 2: 200; 3: 20; 4: 5; 5: 7.5; 6: 4

Okay, here is my list. What is IC50 for each of these?
1. ABT2-65-32 (other, VH dAb) VH: EVQLLESGGGLVQPGGSLRLSCAASGFTFEDYQMGWVRQAPGKGLEWVSSISAMGNRTYYADSVKGRFTISRDDSKNTLYLQMNSLRAEDTAVYYCAQNLVAVSRGRWMFDYWGQGTLVTVSS
2. ABT2-65-48 (other, VH dAb) VH: EVQLLESGGGLVQPGGSLRLSCAASGFTFEDYQMGWVRQAPGKGLEWVSSISAMGNRTYYADSVKGRFTISRDDSKNTLYLQMNSLRAEDTAVYYCAKWQMRTQSKLGYFDYWGQGTLVTVSS
3. ABT2-65-149 (other, VH dAb) VH: EVQLLESGGGLVQPGGSLRLSCAASGFTFEDYQMGWVRQAPGKGLEWVSSISAMGNRTYYADSVKGRFTISRDDSKNTLYLQMNSLRAEDTAVYYCAENLVRVDRRRWMFDYWGQGTLVTVSS
4. ABT2-65-46 (other, VH dAb) VH: EVQLLESGGGLVQPGGSLRLSCAASGFTFEDYQMGWVRQAPGKGLEWVSSISAMGNRTYYADSVKGRFTISRDDSKNTLYLQMNSLRAEDTAVYYCAKWLTRTQSKLGYFDYWGQGTLVTVSS

[4, 20, 4, 30]
